Property: pIC50; scope: individual binders
Target: purified HLA DRB1*1302 (human)
Experiment: competition with 125I-labelled reference peptide, purified HLA
pIC50: −log10 of the molar value.
value kind: pIC50

{"binder": "AKSMEYDAVATTHSW (modifications not checked) [Flu.PB1.655]", "reported value": 5.66}
{"binder": "NNMINNDLGPATAQM (modifications not checked) [Flu.PB1.535]", "reported value": 6.32}
{"binder": "AGLLVSDGGPNLYNI (modifications not checked) [Flu.PB1.590]", "reported value": 6.98}
